Listed below: GI50 values for each entry.
tested on: SK-MEL-2; experiment: NCI tumour cell line growth inhibition, 48 h
Calls of active or inactive are those of the source. Cut-off read from the data, not from the text of the source: active = GI50 up to about 1.1 µM and inactive = higher.
reported.metric: GI50

> print(dat)
                                    molecule  measured.on  reported.metric            obs.value
 1  CC(=N\N)/C(C)=N/N=C(C)/C(C)=N/N=C(C)/C(C)=N/N=C(C)/C(C)=N/N     SK-MEL-2             GI50  > 100 µM (inactive)
 2  COc1ccc(/C(=C/n2ccnc2)C(=O)c2ccc(OC)c(OC)c2)cc1     SK-MEL-2             GI50  > 100 µM (inactive)
 3  O=C(O)c1ccc(/N=C(\C(=N\c2ccc(C(=O)O)cc2)c2ccccc2)c2ccccc2)cc1     SK-MEL-2             GI50  > 100 µM (inactive)
 4  COc1cc(-c2cc(=O)c3c(OC)c(OC)c(OC)cc3o2)c(OC)c(OC)c1OC     SK-MEL-2             GI50   45.6 µM (inactive)
 5  NC(Cn1ccc(=O)c(O)c1)C(=O)O (stereo unspecified) [MIMOSINE]     SK-MEL-2             GI50  > 100 µM (inactive)
 6                c1ccc2c(c1)CCN(C1=NCCO1)C2     SK-MEL-2             GI50   > 10 µM (inactive)
 7          CSC1=NN(c2ccccc2)C(=O)C1=C(SC)SC     SK-MEL-2             GI50   22.8 µM (inactive)
 8           O=C1Nc2nccnc2C(=O)N2CCC[C@@H]12     SK-MEL-2             GI50  > 100 µM (inactive)
 9                 Oc1c(-c2ccccc2)sc2ccccc12     SK-MEL-2             GI50   10.8 µM (inactive)
10                    CN1CCC(O)(C(C)(C)C)CC1     SK-MEL-2             GI50  > 100 µM (inactive)
11  Cc1ccc(-n2cc(-c3ccc(Cl)cc3)c3c(NN)ncnc32)cc1     SK-MEL-2             GI50   15.1 µM (inactive)

* * *

tested on: UACC-257; test: NCI tumour cell line growth inhibition, 48 h
Active and inactive are the calls of the source. Rule as the data show it: active = GI50 up to about 1.1 µM and inactive = higher. Where a SMILES comes first, the peptide text is derived from it. The star is where a group is joined. Fmoc = O=C(OCC1c2ccccc2-c2ccccc21)*; Boc = CC(C)(C)OC(=O)*

compound	GI50
CC1(C)C=C(S(=O)(=O)c2ccccc2)Oc2ccccc2O1	38 µM (inactive)
NC(Cn1ccc(=O)c(O)c1)C(=O)O (centres undefined) [MIMOSINE]	> 100 µM (inactive)
NC(N)=NCCC(O)(P(=O)(O)O)P(=O)(O)O	> 100 µM (inactive)
Oc1c(NCn2nc(CCCCCCCCc3nn(CNc4ccc5ccccc5c4O)c(=S)o3)oc2=S)ccc2ccccc12	75.5 µM (inactive)
CCOC(=O)CNC(=O)C(CSCC1C(=O)Nc2ccccc21)NC(=O)CCC(N)C(=O)OCC (centres undefined)	4.16 µM (inactive)
CN(C)CCNc1ccc2nnn3c4ccc(Cl)cc4c(=O)c1c23	5.19 µM (inactive)
NC(=O)C1CCN(Cc2c(Cl)c(Cl)c(CN3CCC(C(N)=O)CC3)c(Cl)c2Cl)CC1	> 100 µM (inactive)
Cc1[nH]c(=O)[nH]c(=O)c1/C=C/C(=O)NC(CO)C[S+]([O-])C[S+](C)[O-] (centres undefined)	21.8 µM (inactive)
CC(C)(C)OC(=O)NCCCCC(NC(=O)OCC1c2ccccc2-c2ccccc21)C(=O)N1CCCC1C(=O)NCC(N)=O (stereo not drawn) (Fmoc-Lys(Boc)-Pro-Gly-NH2; configuration not given here)	> 100 µM (inactive)

* * *

Let's look at some compounds and their measured GI50.
test system: TK-10; experiment: NCI tumour cell line growth inhibition, 48 h
Activity calls are given as the source filed them. Rule as the data show it: active = GI50 up to about 1.1 µM and inactive = higher.
reported.metric: GI50

> print(dat)
                                    compound  measured.on            obs.value
 1  NC(Cn1ccc(=O)c(O)c1)C(=O)O (stereo not given)        TK-10  > 100 µM (inactive)
 2          CC(=O)Nc1ccc(Nc2cc(O)nc(O)n2)cc1        TK-10  > 100 µM (inactive)
 3          Oc1nc(-c2ccccc2)cc(-c2ccccc2O)n1        TK-10  > 100 µM (inactive)
 4  Cc1c(Cl)cccc1NC(=O)C(=O)c1c(O)c2ccc(O)cc2oc1=O        TK-10  > 100 µM (inactive)
 5                  CN1C(=O)C(C)(C)NS1(=O)=O        TK-10  > 100 µM (inactive)
 6  CCCCCCCCCC(=O)NC(CCC(=O)N(CCNC(=O)c1nc(-c2ccccc2)oc1-c1ccccc1)Cc1ccccc1)C(=O)O (stereo not given)        TK-10   22.4 µM (inactive)
 7  CN(C)c1ccc(/C=N/c2ccc(Oc3ccc(Cl)cc3)c(Cl)c2)cc1        TK-10   32.4 µM (inactive)
 8  O=C(O)c1nc2cc(C(F)(F)F)ccc2nc1Nc1ccc(Cl)c(Cl)c1        TK-10   14.2 µM (inactive)
 9  Cc1cc(-c2cc(C(C)(C)C)c(O)c(C(C)(C)C)c2)c(C)cc1-c1cc(C(C)(C)C)c(O)c(C(C)(C)C)c1        TK-10  > 100 µM (inactive)
10  CCOC(=O)[C@@H]1ON2O[C@@H](OC3CCCC3(c3ccccc3)c3ccccc3)C[C@H]3OC(=O)[C@@H]1C32 (stereo not given in full)        TK-10   21.1 µM (inactive)
11  O=[N+]([O-])c1cc(Cl)cc2c1nc(NCCO)c1ccccc12        TK-10   10.8 µM (inactive)
12  Oc1c(NCn2nc(CCCCCCCCc3nn(CNc4ccc5ccccc5c4O)c(=S)o3)oc2=S)ccc2ccccc12        TK-10   68.1 µM (inactive)
13  c1cncc(C2N3CCCCC3[C@@H]3c4[nH]c5ccccc5c4CCN23)c1 (stereo not given in full)        TK-10  > 100 µM (inactive)
14                         C/N=N/N(C)C(=O)NC        TK-10  > 100 µM (inactive)
15  CCNC(=O)O/N=C1\CCC2[C@@H]3CC=C4C[C@@H](OC(=O)NCC)CC[C@]4(C)C3CC[C@]12C (stereo not given in full)        TK-10   1.77 µM (inactive)
16         O/N=N/c1ccc(Sc2ccc(/N=N/O)cn2)nc1        TK-10  > 100 µM (inactive)
17  CC1OC(CC2C=CCc3c(O)c4c(c(O)c32)C(=O)c2ccccc2C4=O)CC(NC(=O)C(F)(F)F)C1O (stereo not given)        TK-10   2.29 µM (inactive)
18  CCOC(=O)C1=CN2C(=N[C@H]3CCCC[C@@H]32)NC1=O        TK-10  > 100 µM (inactive)
19        CN(C)C(=S)/N=c1\ssc(=S)n1Cc1ccccn1        TK-10   7.55 µM (inactive)
20  Nc1c(S(=O)(=O)O)cc(Nc2cccc(S(=O)(=O)/C=C/S(=O)(=O)O)c2)c2c1C(=O)c1ccccc1C2=O        TK-10  > 100 µM (inactive)

* * *

test system: CCRF-CEM; assay: NCI tumour cell line growth inhibition, 48 h
Active and inactive are the calls of the source. No stated cut-off is given here; in the data, active = GI50 up to about 1.1 µM and inactive = higher.
Catalogue of molecules with associated GI50
reported.metric: GI50

> print(dat)
                                   molecule            obs.value
1  Cc1cccc(/N=N/c2ccc(/N=N/c3c(O)ccc4ccccc34)cc2C)c1  > 100 µM (inactive)
2  O=[N+]([O-])c1cc(Cl)cc2c1nc(NCCO)c1ccccc12   16.7 µM (inactive)
3  N#Cc1c(-c2ccccc2)c(C#N)c(=S)n(C2OC(CO)C(O)C(O)C2O)c1O (stereo not given)  > 100 µM (inactive)
4    CC(C)(C)OC(=O)[C@H]1CCC(=S)N1Cc1ccccc1  > 100 µM (inactive)
5  C1#Cc2ccccc2OCCOc2ccccc2C#Cc2ccccc2OCCOc2ccccc21     18 µM (inactive)

* * *

tested on: NCI-H460; experiment: NCI tumour cell line growth inhibition, 48 h
Calls of active or inactive are those of the source. Cut-off read from the data, not from the text of the source: active = GI50 up to about 1.1 µM and inactive = higher.
reported.metric: GI50

> print(dat)
                                    compound  reported.metric            obs.value
 1           CC(=O)OCSc1ncnc2c1ncn2CN1CCOCC1             GI50   18.2 µM (inactive)
 2  C[C@]12CCC(=O)C(O)=C1CC[C@@H]1C2CC[C@]2(C)NC(=O)CCC12 (stereo not given in full)             GI50  > 100 µM (inactive)
 3  COc1ccc(C2=C(Cl)c3cc(OC)c(OC)cc3C2Cl)cc1 (stereo not given)             GI50   9.71 µM (inactive)
 4  CC[C@]12C=CCN3CC[C@@]4(c5cc(N=O)c(OC)cc5N(C)[C@H]4[C@@](O)(C(=O)OC)[C@@H]1OC(C)=O)[C@@H]32             GI50   92.3 µM (inactive)
 5       S=c1sc2ccccc2n1CN1CCN(Cc2ccccc2)CC1             GI50  > 100 µM (inactive)
 6         Cc1cc2occ(-c3ccc(Cl)cc3)c2c(=O)o1             GI50  > 100 µM (inactive)
 7  CCOC(=O)C1=C(C)N(c2ccc(C)cc2)C2(O)C=CC(O)=C3C(=O)c4ccccc4C(=O)C312 (stereo not given)             GI50   34.2 µM (inactive)
 8  CN1CC[C@]23c4c5ccc(O)c4OC2c2[nH]ncc2C[C@H]3[C@H]1C5 (stereo not given in full)             GI50  > 100 µM (inactive)
 9         COc1cc2ncnc(Nc3cccc(Br)c3)c2cc1OC             GI50   5.75 µM (inactive)
10  CC(C)[Si](OC12CCC(CC1O)CC2CO)(C(C)C)C(C)C (stereo not given)             GI50   12.6 µM (inactive)
